The measured values listed here are drawn from PubChem BioAssay (NCI).

# Test system: K-562 leukemia
# run description: NCI tumour cell line growth inhibition, 48 h; in the data active = GI50 below about 0.43 µM; inactive = the rest
Select the matching outcome among active, inactive

Example entries begin here.
Q: Tell me the recorded outcome of this test for COc1ccc(-c2nc(S(=O)(=O)c3ccccc3)c(S(=O)CC(=O)N3CCC(C)CC3)o2)cc1 (centres undefined) .
Result: active

Q: Tell me the recorded outcome of this test for c1ccc(-c2n(Cc3ccc4ccccc4n3)cc[n+]2Cc2ccc3ccccc3n2)cc1 .
Result: inactive

Q: Tell me the recorded outcome of this test for N[C@@H]1CCCC[C@@H]1N.O=P([O-])([O-])CNCP(=O)([O-])[O-].[Pt+2] .
Result: inactive

--- query ---
Q: Tell me the recorded outcome of this test for COc1cccc(CNCCN2C(=O)c3ccc4c5c(ccc(c35)C2=O)C(=O)N(CCNCc2cccc(OC)c2)C4=O)c1 .
Result: inactive

---

# Tested on: SN12C renal
# run description: NCI tumour cell line growth inhibition, 48 h; in the data active means GI50 below about 0.43 µM; inactive means the rest
Select the matching outcome among T for active, F for inactive

Q: Tell me the recorded outcome of this test for N#Cc1cc2c(cc1Cl)SC(=Nc1ccccc1)N(S(=O)(=O)c1ccc(Cl)cc1)S2(=O)=O .
Result: F

Q: Tell me the recorded outcome of this test for CN1CCN(CCCOc2ccc3ncnc(Nc4ccc(OCc5cccc(F)c5)c(Cl)c4)c3c2)CC1 .
Result: F

Q: Tell me the recorded outcome of this test for O=C1/C(=C/c2ccc(Cl)cc2Cl)CN(S(=O)(=O)c2ccccc2)C/C1=C\c1ccc(Cl)cc1Cl .
Result: T

New cases:
Q: Tell me the recorded outcome of this test for O=C1Nc2ccccc2/C1=C/C(=N/c1nnc(-c2ccc(Cl)cc2)s1)c1ccccc1 .
Result: F

Q: Tell me the recorded outcome of this test for C=C1CC[C@@H]2C(C)(C)[C@H](O)CC[C@@]2(C)[C@@H]1COc1ccc2ccc(=O)oc2c1 .
Result: F

Q: Tell me the recorded outcome of this test for COc1cc(O)c2c3c(ccnc13)-c1ccccc1N2 .
Result: F

Q: Tell me the recorded outcome of this test for N#C/C(=C\c1ccc2c(c1)OCO2)n1nnc2ccccc21 .
Result: F

Q: Tell me the recorded outcome of this test for Cc1cc2nc(CS)[nH]c2cc1C .
Result: F

Q: Tell me the recorded outcome of this test for COc1cc(/C=C\c2cc(/C=C\c3ccc(O)c(OC)c3)n(C(=O)COc3ccc(Cl)cc3Cl)n2)ccc1O .
Result: F

---

# System: KM12 colon
# run description: NCI tumour cell line growth inhibition, 48 h
TGI values, listed per item

Consider the following illustrative entries.
Q: GET /values?readout=TGI&item= CCOC(=O)/C=C(\C)Sc1cc(O)c2ccccc2c1O
Result: 75.4 µM

Q: GET /values?readout=TGI&item= COc1ccc(OC)c(N(CCN2C(=O)c3ccccc3C2=O)C(=O)CCl)c1
Result: 5.17 µM

New cases:
Q: GET /values?readout=TGI&item= COC(=O)C1=C(C(=O)OC)C2(C3C(SC)=CC(C)(C)CC3S1)N(Cc1ccccc1)CCN2Cc1ccccc1 (centres undefined)
Result: > 100 µM

Q: GET /values?readout=TGI&item= COc1ccc2c(c1)c(-c1nonc1-c1cn(C)c3ccccc13)cn2C
Result: > 100 µM

Q: GET /values?readout=TGI&item= O=C(C(Cl)Cl)N(O)c1ccccc1OCc1ccccc1
Result: > 100 µM

Q: GET /values?readout=TGI&item= C=CCC(NCc1ccccc1)[C@H](OCc1ccccc1)[C@@H]1COC(C)(C)O1 (some centres undefined)
Result: > 100 µM

Q: GET /values?readout=TGI&item= C#CCC(O)c1ccccc1C(O)CC#C (centres undefined)
Result: > 100 µM

---

# System: SW-620 colon
# run description: NCI tumour cell line growth inhibition, 48 h
test readout: TGI

Q: GET /values?readout=TGI&item= CC(=O)/C(N=Nc1ccc(-n2c(C)nc3ccccc3c2=O)cc1)=C(/C)O
Result: > 100 µM

Q: GET /values?readout=TGI&item= O=C1CNN=C(CSc2nc3ccc(I)cc3c(=O)n2Cc2ccccc2)N1
Result: > 100 µM

Q: GET /values?readout=TGI&item= Cn1cc(NC(=O)c2cc(NC(=O)CCCCCCCCC(=O)Nc3cc(C(=O)Nc4cc(C(=O)NCCC(N)N)n(C)c4)n(C)c3)cn2C)cc1C(=O)NCCC(=N)N
Result: 44.9 µM

Q: GET /values?readout=TGI&item= N#C/C(=C/c1cccc2ccccc12)C(=O)c1ccccc1
Result: 32 µM

Q: GET /values?readout=TGI&item= O=C(Nc1nc(=S)[nH][nH]1)C(=O)C1C(=O)Nc2ccccc2S1=O (stereo unspecified)
Result: > 100 µM

---

TGI values, listed per item
# Test system: SNB-19 CNS
# run description: NCI tumour cell line growth inhibition, 48 h

Consider the following illustrative entries.
Q: # get_value(readout= TGI, system= SNB-19 CNS) for O=c1cc(NNc2ccc(F)cc2)[nH]c(=O)[nH]1
Result: 37.1 µM

Q: # get_value(readout= TGI, system= SNB-19 CNS) for CCOC(=O)Oc1ccc(C(CNC(C)C)OC(=O)OCC)cc1OC(=O)OCC (stereo unspecified)
Result: > 100 µM

Q: # get_value(readout= TGI, system= SNB-19 CNS) for Cc1ccc(Cl)cc1Nc1nc(C(F)(F)F)ccc1C(N)=O
Result: > 100 µM

Q: # get_value(readout= TGI, system= SNB-19 CNS) for NC12CC3C4CC5(N)CC3C(C1)C(C5)C4C2
Result: > 100 µM

New cases:
Q: # get_value(readout= TGI, system= SNB-19 CNS) for CCOC(=O)COc1ccc(OC)c2c1C(=O)CCC2
Result: > 100 µM

Q: # get_value(readout= TGI, system= SNB-19 CNS) for O=C1/C(=C\c2cccc(Oc3ccccc3)c2)S(=O)(=O)C(c2ccccc2)N1c1cc(Cl)ccc1Cl (stereo unspecified)
Result: 35.7 µM

Q: # get_value(readout= TGI, system= SNB-19 CNS) for Fc1cc(-c2csc3n[nH]c(=S)n23)c(Cl)cc1Cl
Result: > 100 µM

Q: # get_value(readout= TGI, system= SNB-19 CNS) for CC1(C)CCCC2(C)[C@@H]1CC[C@@]13CC(=O)[C@@](C)(CC[C@@H]21)C3 (stereo partly specified)
Result: > 100 µM

Q: # get_value(readout= TGI, system= SNB-19 CNS) for CCc1n[nH]c(=S)n1/N=C/c1ccc(-c2ccc([N+](=O)[O-])cc2)o1
Result: > 100 µM

Q: # get_value(readout= TGI, system= SNB-19 CNS) for C#CCC(O)c1ccccc1C(O)CC#C (stereo unspecified)
Result: > 100 µM

Q: # get_value(readout= TGI, system= SNB-19 CNS) for Cc1cc(Cc2c(C)c(C)c(Cc3cc(C)cc(C(C)(C)C)c3O)c(C)c2C)c(O)c(C(C)(C)C)c1
Result: > 100 µM

---

# Test system: OVCAR-8 ovarian
# run description: NCI tumour cell line growth inhibition, 48 h
TGI values, listed per item

Consider the following illustrative entries.
Q: GET /values?readout=TGI&item= CC(=O)/C(N=Nc1ccc(-n2c(C)nc3ccccc3c2=O)cc1)=C(/C)O
Result: > 100 µM

Q: GET /values?readout=TGI&item= C=CCC(NCc1ccccc1)[C@H](OCc1ccccc1)[C@@H]1COC(C)(C)O1 (stereo not given in full)
Result: > 100 µM

Q: GET /values?readout=TGI&item= CCN(C(C)=N)c1ccccc1
Result: > 100 µM

Q: GET /values?readout=TGI&item= O=c1cc(NNc2ccc(F)cc2)[nH]c(=O)[nH]1
Result: 53.3 µM

Q: GET /values?readout=TGI&item= C[N+](C)(C)CC1CCCC(C[N+](C)(C)C)C1=NO (stereo not given)
Result: > 100 µM

New cases:
Q: GET /values?readout=TGI&item= CN(N=O)C(=O)NNC(=O)N(C)N=O
Result: > 100 µM

Q: GET /values?readout=TGI&item= Oc1ccc(-c2nc3ccc(F)cc3s2)cc1
Result: 39.9 µM

Q: GET /values?readout=TGI&item= COC(=O)C1=C(C(=O)OC)C2(C3C(SC)=CC(C)(C)CC3S1)N(Cc1ccccc1)CCN2Cc1ccccc1 (stereo not given)
Result: > 100 µM

Q: GET /values?readout=TGI&item= CC(C)(O)C1CC[C@]2(C)CC[C@]3(C)[C@H](CC[C@@H]4[C@@]5(C)CC[C@H](O)C(C)(C)[C@@H]5CC[C@]43C)[C@@H]12 (stereo not given in full)
Result: > 100 µM

Q: GET /values?readout=TGI&item= O=C1C2=Cc3ccccc3OC2(O)Oc2cc(O)cc(O)c21 (stereo not given)
Result: > 100 µM

---

# Tested on: OVCAR-3 ovarian
# run description: NCI tumour cell line growth inhibition, 48 h
test readout: TGI

Q: GET /values?readout=TGI&item= O=C(C(Cl)Cl)N(O)c1ccccc1OCc1ccccc1
Result: > 100 µM

Q: GET /values?readout=TGI&item= O=c1cc(NNc2ccc(F)cc2)[nH]c(=O)[nH]1
Result: 32.7 µM

Q: GET /values?readout=TGI&item= CCOC(=O)Oc1ccc(C(CNC(C)C)OC(=O)OCC)cc1OC(=O)OCC (stereo not given)
Result: > 100 µM

Q: GET /values?readout=TGI&item= O=C(Cn1nnc(-c2ccccc2)n1)N/N=C/c1cn(Cc2ccc(Cl)cc2Cl)c2ccccc12
Result: > 100 µM

Q: GET /values?readout=TGI&item= COc1ccc2cnc(N)c(C#Cc3cc(C(=O)Nc4ccc(CN5CCN(C)CC5)c(C(F)(F)F)c4)cnc3C)c2c1
Result: > 50 µM

New cases:
Q: GET /values?readout=TGI&item= Fc1cc(-c2csc3n[nH]c(=S)n23)c(Cl)cc1Cl
Result: > 100 µM

Q: GET /values?readout=TGI&item= Cc1ccc(Oc2ccc(C(=O)c3cccc(C(=O)c4ccc(Oc5ccc(C)cc5)cc4)n3)cc2)cc1
Result: > 100 µM

Q: GET /values?readout=TGI&item= CN(C)C(=S)NC(=S)Nc1ccc2ccccc2c1
Result: 57.8 µM

Q: GET /values?readout=TGI&item= CN(C)CCN(C)CCC(=O)/C=C/c1ccccc1
Result: > 61.4 µM

Q: GET /values?readout=TGI&item= COC(=O)c1ccc2[nH]c(O)c(C(=Nc3ccc(N(C)C(=O)CN4CCN(C)CC4)cc3)c3cccc(OC)c3)c2c1
Result: 2.57 µM
